Test: Permeability in CALU-3 cells
Format: in vitro ADME
Conditions: human; apical-to-basal, CALU-3 monolayers, pH 7.4, 37° C., 10 μM compound
Description: Permeability in CALU-3 Cells: Permeability measurements across polarized, confluent CALU-3 cell monolayers grown on permeable filter supports are used to provide information on the potential of a compound to pass the lung epithelium. CALU-3 cells (1-2×10^5 cells/l cm^2 area) are seeded on filter inserts (Costar transwell polycarbonate filters, 0.4 μm pore size) and cultured (for 10-12 days DMEM) until tight monolayers are formed. […]
PROPERTY: Papp A→B at 90 min, 10 μM (nm/s)
Give your result in nm/s as a bare value.

I would be grateful if you could share the reported Papp A→B at 90 min, 10 μM for CCn1c(CNC(=O)c2nc(Cl)c(N)nc2N)[n+](CC(=O)N(C)CCOC)c2ccc(OC)cc21.[Br-] .
0.7

I would be grateful if you could share the reported Papp A→B at 90 min, 10 μM for CCn1c(CNC(=O)c2nc(Cl)c(N)nc2N)[n+](CC(=O)NCCN(C)C)c2ccc(OC)cc21.O=C(O)C(F)(F)F.O=C([O-])C(F)(F)F .
1

I would be grateful if you could share the reported Papp A→B at 90 min, 10 μM for CC[n+]1c(CNC(=O)c2nc(Cl)c(N)nc2N)n(CCCc2ccc(OCP(C)(C)=O)cc2)c2cc(OC)ccc21.O=C([O-])C(F)(F)F .
1

I would be grateful if you could share the reported Papp A→B at 90 min, 10 μM for CCn1c(CNC(=O)c2nc(Cl)c(N)nc2N)[n+](CC(=O)N2CCNCC2)c2ccc(OC)cc21.Cl.[Cl-] .
3

I would be grateful if you could share the reported Papp A→B at 90 min, 10 μM for CCn1c(CNC(=O)c2nc(Cl)c(N)nc2N)[n+](CC(=O)N2CCN(C(=O)OC(C)(C)C)CC2)c2ccc(OC)cc21.[Br-] .
1

I would be grateful if you could share the reported Papp A→B at 90 min, 10 μM for CCn1c(CNC(=O)c2nc(Cl)c(N)nc2N)[n+](CC(=O)N2CCOCC2)c2ccc(OC)cc21.[Br-] .
0.6
